# System: Escherichia coli TOP10
# ASSAY NOTES: shrunken log2 fold change of peptide-encoding DNA abundance (4.5 h post-induction vs induction); higher = less antimicrobial activity (less host growth inhibition)
# PARTICULARS: time post-induction: 4.5 h; library: site-saturation at positions 5, 18, 19, 20
MEASURED METRIC: shrunken log2 fold change

chain_sequence=RRIRMRPPRLPRPRPRPMDTPRP measured_metric="shrunken log2 fold change" assay_value=-0.00187

Problem: Would you mind telling me what shrunken log2 fold change value was observed for RRIRQRPPRLPRPRPRPRTIPRP ?
Solution: 0.122

----------
# System: Escherichia coli TOP10;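 note: peptides expressed intracellularly from a pBAD plasmid library in pooled LB shake-flask culture, induced with 0.3% L-arabinose, DNA abundance read by NGS, three biological replicates, DESeq2 with apeglm shrinkage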
# ASSAY NOTES: shrunken log2 fold change of peptide-encoding DNA abundance (4.5 h post-induction vs induction); higher = less antimicrobial activity (less host growth inhibition)
# PARTICULARS: time post-induction: 4.5 h; library: site-saturation at positions 5, 18, 19, 20
Measured shrunken log2 fold change values are reported for all entries that follow.
Give the value as a plain number.

Study these solved cases before continuing.
chain_sequence=RRIRDRPPRLPRPRPRPTNAPRP measured_on="Escherichia coli TOP10" assay_value=0.182
chain_sequence=RRIRSRPPRLPRPRPRPDLYPRP measured_on="Escherichia coli TOP10" assay_value=-0.171
chain_sequence=RRIRQRPPRLPRPRPRPRHKPRP measured_on="Escherichia coli TOP10" assay_value=0.0456

Problem: Short answer please: shrunken log2 fold change, Escherichia coli TOP10, entry RRIRKRPPRLPRPRPRPFHAPRP
Solution: -0.179
